# Tested on: Leishmania amazonensis
# experimentDescription: Leishmanicidal activity against Leishmania amazonensis MHOM/BR/71973/M2269 amastigotes infected in mouse peritoneal macrophages assessed as reduction in surviving parasites incubated for 72 hrs by Giemsa staining based optical light microscopy
# Assay type: functional, organism-based
# reportedConditions: MHOM/BR/71973/M2269, 72 h
measurementName: IC50

- compound: "N=C(N)c1ccc(OCCCCCOc2ccc(C(=N)N)cc2)cc1 [PENTAMIDINE]"
  IC50: "6.62 µM"
- compound: "CS(=O)(=O)OCCCCCCCCCCCCn1cc(CCCO)nn1"
  IC50: "14.2 µM"
- compound: "C[C@@H]1[C@H](O)[C@@H](C)/C=C/C=C/C=C/C=C/C=C/C=C/C=C/[C@H](O[C@@H]2O[C@H](C)[C@@H](O)[C@H](N)[C@@H]2O)C[C@@H]2O[C@](O)(C[C@@H](O)C[C@@H](O)[C@H](O)CC[C@@H](O)C[C@@H](O)CC(=O)O[C@H]1C)C[C@H](O)[C@H]2C(=O)O [AMPHOTERICIN B]"
  IC50: "6.1 µM"

# input for lookup
### Prompt Which IC50 is listed for OCCCc1cn(CCCCCCCCCCCCF)nn1 ?
### Response 15.1 µM

* * *

# experimentDescription: Selectivity index, ratio of CC50 for mouse peritoneal macrophages to IC50 for Leishmania amazonensis MHOM/BR/71973/M2269 amastigotes infected in mouse peritoneal macrophages
# Format: functional
Each record is given 1.0 if its reported Ratio CC50/IC50 is strictly below 5. Records at or above 5 are given 0.0.

- substanceSmiles: "C[N+](C)(C)CCOP(=O)([O-])OCCCCCCCCCCCCN=[N+]=[N-]"
  classAssignment: 0.0
- substanceSmiles: "CCOC(=O)c1cn(CCCCCCCCCCCCI)nn1"
  classAssignment: 0.0
- substanceSmiles: "CS(=O)(=O)OCCCCCCCCCCCCn1cc(CCCOS(C)(=O)=O)nn1"
  classAssignment: 1.0
- substanceSmiles: "N=C(N)c1ccc(OCCCCCOc2ccc(C(=N)N)cc2)cc1"
  classAssignment: 1.0

### Prompt Lab log: compare recorded Ratio CC50/IC50 with 5; is it strictly lower for OCCCc1cn(CCCCCCCCCCCCF)nn1 ?
### Response 0.0

Reference source: ChEMBL document CHEMBL3611972
